# Test system: SF-295
# Assay Overview: NCI tumour cell line growth inhibition, 48 h
The source made the active and inactive calls. Cut-off read from the data, not from the text of the source: active = GI50 up to about 1.1 µM and inactive = higher. Non-standard residues stand in square brackets, D forms with d. Residues, ends and D or L forms follow the SMILES beside them. *: point of attachment. Bn2Val = CC(C)[C@@H](C(=O)*)N(Cc1ccccc1)Cc1ccccc1; NMeV = CN[C@H](C(=O)O)C(C)C; X32 = COc1ccc(CN*)c(OC)c1; dNMeA = CN[C@H](C)C(=O)O
Parameter: GI50

Example entries and their recorded answers appear below.
Compound	Parameter	Value Reported
COc1ccc(CNC(=O)[C@@H]2CCCN2C(=O)[C@@H](C)N(C)C(=O)[C@H](C(C)C)N(C)C(=O)[C@@H](NC(=O)[C@H](C(C)C)N(Cc2ccccc2)Cc2ccccc2)C(C)C)c(OC)c1 (Bn2Val-V[NMeV][dNMeA]P-X32)	GI50	3.34 µM (inactive)
Cc1csc(NNC(=O)Nc2ccccc2)n1	GI50	> 100 µM (inactive)
COc1ccc(CNc2nc(NCc3ccc(OC)cc3)nc(NC3CCCC3)n2)cc1	GI50	2.18 µM (inactive)

Lookup: State the recorded GI50 for this entry: "C/C(=N\NC(=S)N(C)C)c1ncc[nH]1"
Found: 4.28 µM (inactive)

Lookup: State the recorded GI50 for this entry: "CCCN(CCC)CCc1ccc(OC2=CCN(C)CC2)cc1"
Found: > 100 µM (inactive)

Lookup: State the recorded GI50 for this entry: "O=C(/C=C1/Nc2ccc([N+](=O)[O-])cc2N/C1=C/C(=O)c1ccc(Cl)cc1)c1ccccc1"
Found: 23.4 µM (inactive)

Lookup: State the recorded GI50 for this entry: "COc1cc(/C=C2\S/C(=N/Nc3nc(-c4ccc(Br)cc4)cs3)NC2=O)cc(OC)c1OC"
Found: 12.4 µM (inactive)

Lookup: State the recorded GI50 for this entry: OCC(CCc1c[nH]c2ccccc12)c1c[nH]c2ccccc12 (centres undefined)
Found: 16.7 µM (inactive)

Lookup: State the recorded GI50 for this entry: CC(=O)N1N=C(c2ccc3ccccc3c2O)CC1c1cccs1 (centres undefined)
Found: 21.7 µM (inactive)

---

# Tested on: NCI-H226
# Assay Overview: NCI tumour cell line growth inhibition, 48 h
Active and inactive are the calls of the source. Cut-off read from the data, not from the text of the source: active = GI50 up to about 1.1 µM and inactive = higher.
Parameter: GI50

Lookup: Return GI50 measured with NCI-H226 given this molecule: "CSc1scc2c1/C(=N/NC(N)=O)CCC2"
Found: 22.4 µM (inactive)

---

# Test system: HOP-18
# Assay Overview: NCI tumour cell line growth inhibition, 48 h
Calls of active or inactive are those of the source. No stated cut-off is given here; in the data, active = GI50 up to about 1.1 µM and inactive = higher.
Documented GI50 across a set of compounds

Example entries and their recorded answers appear below.
Compound	GI50
COC(=O)NN=C1C(C)(C)C(=NNC(=O)OC)C1(C)C	> 100 µM (inactive)
O=C1N(c2ccc(Cl)cc2)C(=O)C2(SC=NN2Cc2ccccc2)N1c1ccc(Cl)cc1 (stereo unspecified)	> 100 µM (inactive)

Lookup: State the recorded GI50 for this entry: O=C(O)CCC(NC(=O)c1ccc(Nc2nc3ccccc3nc2-c2cccs2)cc1)C(=O)O (stereo unspecified)
Found: > 100 µM (inactive)

Lookup: State the recorded GI50 for this entry: "ClC(Cl)=C1C(=C(Cl)Cl)C(Cl)(Cl)C1(Cl)Cl"
Found: 5.9 µM (inactive)

Lookup: State the recorded GI50 for this entry: "Cc1cc(C)cc(-n2c3nc(=O)n(C)c(=O)c-3nc3ccccc32)c1"
Found: > 100 µM (inactive)

Lookup: State the recorded GI50 for this entry: "Cc1ccc(C2=[N+]([O-])c3ccccc3C2=O)cc1"
Found: 27.4 µM (inactive)
